Just for reference, patent US11767323B2 is where these values come from.

# target or test system: catalytic domain (JH1, amino acids 826-1132) of human JAK2 (Homo sapiens (Human), UniProt O60674)
# Sequence (O60674 826-1132): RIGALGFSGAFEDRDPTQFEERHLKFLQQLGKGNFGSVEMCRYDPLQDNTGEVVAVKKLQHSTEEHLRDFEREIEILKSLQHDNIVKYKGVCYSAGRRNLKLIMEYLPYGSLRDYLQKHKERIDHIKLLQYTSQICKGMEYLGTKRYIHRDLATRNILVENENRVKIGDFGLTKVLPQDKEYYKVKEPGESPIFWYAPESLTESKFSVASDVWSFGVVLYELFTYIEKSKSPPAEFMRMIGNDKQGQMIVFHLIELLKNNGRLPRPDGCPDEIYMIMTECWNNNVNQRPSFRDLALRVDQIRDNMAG
# test details: JAK2 LanthaScreen JH1 Binding Assay
# study conditions: JAK2 JH1 1.5 nM, 50 nM tracer, 2 hours at 25° C.; read-out: JH1 BIND IC50
measure: IC50

Here are 4 molecules together with their reported answers.
>  <smiles input>
CN(C)C(=O)c1ccc(-c2c(-c3cnn(C)c3)[nH]c3ncc4c(cc(Nc5cccc(-c6nnn[nH]6)c5)c(=O)n4C)c23)cc1

>  <IC50>
100 to 500 nM

$$$$
>  <smiles input>
Cc1cc(-c2c(-c3ccc(-c4cnn(C)c4C)cc3)c3c4cc(-c5cnn(C)c5)[nH]c4ncc3n(C)c2=O)on1

>  <IC50>
500 to 1000 nM

$$$$
>  <smiles input>
CN(C)C(=O)c1ccc(-c2c(-c3cnn(C)c3)[nH]c3ncc4c(cc(Nc5ccc(Cc6nnn[nH]6)cc5)c(=O)n4C)c23)cc1

>  <IC50>
≤ 100 nM

$$$$
>  <smiles input>
COCCN(C)c1ccc(-c2c(-c3cc(C)no3)c(=O)n(C)c3cnc4[nH]c(-c5cnn(C)c5)cc4c23)cc1

>  <IC50>
100 to 500 nM

$$$$

Incoming: Read off the recorded IC50 for Cc1c(-c2ccc(C(=O)O)cc2)c(=O)n(C)c2cnc3[nH]c(-c4ccc(CN5CCC(S(C)(=O)=O)CC5)cc4)cc3c12
Outgoing: 100 to 500 nM

Incoming: Read off the recorded IC50 for Cc1cc(-c2c(-c3ccccc3)c3c4cc(-c5cnn(C)c5)[nH]c4ncc3n(C)c2=O)on1
Outgoing: 100 to 500 nM

Incoming: Read off the recorded IC50 for CS(=O)(=O)C1CCN(Cc2ccc(-c3cc4c(ncc5[nH]c(=O)c(C#N)cc54)[nH]3)cc2)CC1
Outgoing: > 10000 nM
